assay: in vivo; settings: rat
Recorded ED50 by entry
Please state the figure in mg/kg; there is no need to write the unit.

Compound: C=CCN1C[C@H](C)N([C@H](c2ccsc2)c2cccc(O)c2)C[C@H]1C
Unit Abbrev: mg/kg
ED50: 0.72

Now for the compound whose ED50 we want.
(Q) Determine its reported ED50: CN1CC[C@]23c4c5ccc(O)c4O[C@H]2[C@@H](O)C=C[C@H]3[C@H]1C5 [Morphine, morphine, reference compound]
(A) 4.23
